The measurements presented in this section are drawn from the supplement of paper PMC10065799.

Target: EPHB2 (UniProt P29323)
Sequence (P29323 whole entry, looked up): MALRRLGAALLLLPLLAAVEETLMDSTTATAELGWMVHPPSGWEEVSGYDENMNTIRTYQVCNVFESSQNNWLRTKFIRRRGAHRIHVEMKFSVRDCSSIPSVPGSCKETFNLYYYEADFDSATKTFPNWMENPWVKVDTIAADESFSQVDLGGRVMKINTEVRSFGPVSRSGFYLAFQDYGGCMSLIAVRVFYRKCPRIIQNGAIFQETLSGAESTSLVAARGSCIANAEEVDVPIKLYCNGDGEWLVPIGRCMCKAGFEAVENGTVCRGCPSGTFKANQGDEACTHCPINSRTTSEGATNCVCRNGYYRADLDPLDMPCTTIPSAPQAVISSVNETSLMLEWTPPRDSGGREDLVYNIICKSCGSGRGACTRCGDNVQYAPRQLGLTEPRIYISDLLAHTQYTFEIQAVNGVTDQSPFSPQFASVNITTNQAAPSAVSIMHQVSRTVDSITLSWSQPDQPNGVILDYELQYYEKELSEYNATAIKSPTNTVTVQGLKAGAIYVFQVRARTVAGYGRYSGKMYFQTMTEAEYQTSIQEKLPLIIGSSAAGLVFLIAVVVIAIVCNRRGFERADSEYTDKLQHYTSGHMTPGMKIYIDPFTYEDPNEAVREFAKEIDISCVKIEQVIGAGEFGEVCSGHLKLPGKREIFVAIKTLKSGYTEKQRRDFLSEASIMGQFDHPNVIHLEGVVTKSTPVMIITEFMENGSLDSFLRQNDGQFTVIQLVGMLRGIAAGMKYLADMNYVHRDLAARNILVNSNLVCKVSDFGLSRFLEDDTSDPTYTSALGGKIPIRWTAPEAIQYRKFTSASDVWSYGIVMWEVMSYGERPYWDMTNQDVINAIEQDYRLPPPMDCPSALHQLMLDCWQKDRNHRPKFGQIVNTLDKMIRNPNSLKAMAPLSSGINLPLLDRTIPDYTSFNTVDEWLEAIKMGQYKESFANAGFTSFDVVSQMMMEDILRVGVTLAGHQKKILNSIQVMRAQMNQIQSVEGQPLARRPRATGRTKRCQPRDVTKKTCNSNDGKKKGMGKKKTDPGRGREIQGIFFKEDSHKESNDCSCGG
Assay: phosphorylation enrichment, bacterial display (enrichment ratio); higher = better substrate or ligand; peptides without Tyr show the background;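 also: 11-residue human phosphosite peptides and single-mutation variants displayed on the E. coli surface, counted by deep sequencing, each peptide's frequency after selection divided by its frequency in the unselected input library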;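 also: frequency after pTyr selection over input frequency; kinase dosed for 20-30% of maximal phosphorylation in three min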
// class assignment uses phosphorylation enrichment with these ranges: Low = under 0.5, Mid = from 0.5 up to 0.6, High = 0.6 and over

Consider the worked cases shown below.
QUERY SEQUENCE: IENKLCGMSDP [RET_Y1062_Y1062C]
EXPERIMENTAL SYSTEM: EPHB2 (UniProt P29323)
CLASSIFICATION: High

QUERY SEQUENCE: FSAGTYPRLEE [SYCN_Y108]
EXPERIMENTAL SYSTEM: EPHB2 (UniProt P29323)
CLASSIFICATION: Low

QUERY SEQUENCE: AFLQTYAHEVS [PCDHGA5_Y753_S754A]
EXPERIMENTAL SYSTEM: EPHB2 (UniProt P29323)
CLASSIFICATION: Mid

QUERY SEQUENCE: SVSVNYGDLVQ [GRAP_Y101_Q104L]
EXPERIMENTAL SYSTEM: EPHB2 (UniProt P29323)
CLASSIFICATION: Mid

q: Tag the class for AAVDEYLEHRR [FAM221A_Y17_Y20H]
a: Mid

q: Please classify: PTTKTYFPHFG [HBA1_Y43_D48G]
a: Low

q: Classify this sequence: LPEENYQVLCF [ARHGAP1_Y365_R369C]
a: High

q: Classify this sequence: KASRKYFAMKI [AKT3_Y173_G171R_YF]
a: Low

q: Lab note: which band did AGDGRYEVLFL [SEMA3F_Y478_A474G] land in?
a: High

q: Consider DVFRQYASLRG [GANAB_Y379_T383R] . To which phosphorylation enrichment class does it belong?
a: Low

q: Class label required: QTEAPYRFIYM [PTPN11_Y511_Q510P]
a: High

q: Which of the defined bands does the recorded phosphorylation enrichment of NTQRPYYKGGG [TYROBP_Y111] sit within?
a: Low
